target: D(2) dopamine receptor (Rattus norvegicus); assay: The percentage inhibition of adenylate cyclase activity of compound was measured on dopamine receptor D2 of Rat Striatum at 0.01 micro M; settings: values are per cent of control
Sequence (P61169 whole entry): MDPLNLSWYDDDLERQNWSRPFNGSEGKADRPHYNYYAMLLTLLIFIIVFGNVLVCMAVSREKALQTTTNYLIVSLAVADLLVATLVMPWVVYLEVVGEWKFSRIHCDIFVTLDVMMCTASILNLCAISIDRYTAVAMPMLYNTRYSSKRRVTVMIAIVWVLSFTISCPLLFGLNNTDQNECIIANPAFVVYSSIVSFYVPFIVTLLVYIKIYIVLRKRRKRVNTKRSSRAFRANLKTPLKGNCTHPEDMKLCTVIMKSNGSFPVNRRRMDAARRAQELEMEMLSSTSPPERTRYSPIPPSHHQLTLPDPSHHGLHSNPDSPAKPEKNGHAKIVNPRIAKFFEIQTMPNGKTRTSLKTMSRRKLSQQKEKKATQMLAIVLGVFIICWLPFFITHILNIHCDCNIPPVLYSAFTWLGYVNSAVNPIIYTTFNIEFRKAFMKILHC
measured.property: residual activity (%)
Value expressed in %; do not type the unit.

Examples from the recorded data:
smiles_code=CCCN(CCc1ccccc1)CCc1ccc(Cl)c(O)c1 measured_property="residual activity" unit_text=% result_value=93
smiles_code=Br.CCCN(CCCc1ccc(O)cc1)CCc1ccc(Cl)c(O)c1 measured_property="residual activity" unit_text=% result_value=96.4
smiles_code=CCCN(CCc1ccc(O)cc1)CCc1ccc(Cl)c(O)c1 measured_property="residual activity" unit_text=% result_value=92
smiles_code=Br.CCCN(CCC)CCc1ccc(Cl)c(O)c1 measured_property="residual activity" unit_text=% result_value=96
smiles_code=Br.NCCc1ccc(Cl)c(O)c1 measured_property="residual activity" unit_text=% result_value=101
smiles_code=NCCc1ccc(O)c(O)c1 measured_property="residual activity" unit_text=% result_value=95

// below: residual activity requested for another molecule
Kindly note the recorded residual activity for `CCCN(CCc1cccc(O)c1)CCc1ccc(Cl)c(O)c1` , which is 94

* * *

target: UniProt:P18901; assay: The percentage stimulation of adenylate cyclase activity of compound was measured on dopamine receptor D1 of Rat Striatum at 0.1 uM; assay type: functional
Sequence (P18901 whole entry): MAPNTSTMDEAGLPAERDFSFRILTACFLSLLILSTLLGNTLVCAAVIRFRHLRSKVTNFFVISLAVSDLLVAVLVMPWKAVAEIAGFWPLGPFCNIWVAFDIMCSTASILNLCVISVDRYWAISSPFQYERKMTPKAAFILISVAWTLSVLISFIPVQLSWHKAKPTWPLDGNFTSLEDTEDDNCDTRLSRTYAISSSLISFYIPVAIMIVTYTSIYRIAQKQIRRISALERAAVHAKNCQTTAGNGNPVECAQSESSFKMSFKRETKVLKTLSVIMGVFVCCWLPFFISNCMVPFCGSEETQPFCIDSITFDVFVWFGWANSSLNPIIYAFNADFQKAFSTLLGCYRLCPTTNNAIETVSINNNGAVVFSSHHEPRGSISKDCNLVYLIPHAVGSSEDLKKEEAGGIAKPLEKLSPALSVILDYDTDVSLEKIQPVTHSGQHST
stimulation: recorded values
Give just the numeric value; % need not be written.

smiles_code=Br.NCCc1ccc(Cl)c(O)c1 measured_property=stimulation result_value=98
smiles_code=Br.CCCN(CCC)CCc1ccc(Cl)c(O)c1 measured_property=stimulation result_value=101
smiles_code=CCCN(CCc1ccccc1)CCc1ccc(Cl)c(O)c1 measured_property=stimulation result_value=113
smiles_code=CCCN(CCc1cccc(O)c1)CCc1ccc(Cl)c(O)c1 measured_property=stimulation result_value=116

Now look at this entry.
The compound `NCCc1ccc(O)c(O)c1` , tested on UniProt:P18901, showed stimulation of 113

* * *

target: D(1A) dopamine receptor (Rattus norvegicus); test: Selectivity index of D1 receptor to that of D2 receptor was determined
measured.property: Ratio
Just the number, please.

Some entries whose results are on file:
smiles_code=CCCN(CCc1cccc(O)c1)CCc1ccc(Cl)c(O)c1 assay_target="D(1A) dopamine receptor (Rattus norvegicus)" result_value=15.3
smiles_code=CCCN(CCc1ccccc1)CCc1cccc(O)c1 assay_target="D(1A) dopamine receptor (Rattus norvegicus)" result_value=124
smiles_code=CCCN(CCc1ccc(O)cc1)CCc1ccc(Cl)c(O)c1 assay_target="D(1A) dopamine receptor (Rattus norvegicus)" result_value=20.1
smiles_code=Br.CCCN(CCC)CCc1ccc(Cl)c(O)c1 assay_target="D(1A) dopamine receptor (Rattus norvegicus)" result_value=3.93
smiles_code=CCCN(CCc1ccccc1)CCc1ccc(Cl)c(O)c1 assay_target="D(1A) dopamine receptor (Rattus norvegicus)" result_value=17.6

For the compound `Br.NCCc1ccc(Cl)c(O)c1` , the measured Ratio on D(1A) dopamine receptor (Rattus norvegicus) was 0.96

Result for `Br.CCCN(CCCc1ccc(O)cc1)CCc1ccc(Cl)c(O)c1` , tested on D(1A) dopamine receptor (Rattus norvegicus), Ratio: 19.9

* * *

target: D(2) dopamine receptor (Rattus norvegicus); experiment: Inhibitory activity against [3H]spiperone in Rat Striatal membrane
measured.property: IC50

smiles_code=Br.CCCN(CCC)CCc1ccc(Cl)c(O)c1 result_value="12900 nM"
smiles_code=CCCN(CCc1cccc(O)c1)CCc1ccc(Cl)c(O)c1 result_value="730 nM"
smiles_code=Br.CCCN(CCCc1ccc(O)cc1)CCc1ccc(Cl)c(O)c1 result_value="850 nM"
smiles_code=CCCN(CCc1ccccc1)CCc1ccc(Cl)c(O)c1 result_value="1390 nM"

Reported IC50 ( `CCCN(CCc1ccc(O)cc1)CCc1ccc(Cl)c(O)c1` ) = 900 nM

Entry `CCCN(CCc1ccccc1)CCc1cccc(O)c1` — recorded IC50 = 750 nM

IC50 measured on `Br.NCCc1ccc(Cl)c(O)c1` = 26300 nM

src = ChEMBL document CHEMBL1125367
